Assay: NCI Yeast Anticancer Drug Screen. Data for the bub3 strain (AID 167)
Conditions: S. cerevisiae bub3 mutant strain, at 50.0 µM, hits give high values
Compounds without any hit were thinned out: in the full panel of roughly 79,000, 15% have a hit.
Exercise: state measured growth inhibition for each of the compounds provided.
Numbers only, in %.

Before answering, review these 2 worked examples.
COC1c2ccccc2C=CN1c1ccc([N+](=O)[O-])cc1[N+](=O)[O-] (stereo unspecified): 59.1
COc1cc(/C=C/C(=O)N[C@@H]2C(=O)N3[C@@H]2SC(C)(C)[C@@H]3C(=O)O)ccc1O: -15.2

Hi, could you look up growth inhibition for each item in my list?
1. OCC[N+]12CCCN1CCC2
2. CNC(=O)C1NCCc2cc(OC)c(OC)cc21 (stereo unspecified)
3. O=C(Oc1ccc(OC(=O)c2ccc([N+](=O)[O-])cc2)cc1)c1ccccc1
4. C/C(=N\N=Nc1ccc(N(C)C)cc1)c1ccccc1
5. O=CC1CCCO1 (stereo unspecified)
6. COc1ccc(C(=O)NNC(=O)c2ccc3ccccc3c2)cc1
7. CCc1c([N+](=O)[O-])cc(C(C)(C)C)c(OC)c1[N+](=O)[O-]

1. -15.3
2. 10.4
3. -3.05
4. 29.2
5. 6.45
6. 5.5
7. 20.2

For each of the items listed, what is its growth inhibition?
1. CCC1CN2CCc3cc(OC)c(OC)cc3C2CC1O (stereo unspecified)
2. O=C(C[n+]1cccc(C(=O)Nc2ccccc2)c1)Nc1ccc(Cl)cc1

[44.4, 6.7]

Measured values drawn from PubChem BioAssay (NCI) for this set.
